STUDY_SYSTEM: T1, Tks4 SH3_(1)–SH3_(2) tandem SH3 fragment (residues 155–279) (human, UniProt A1X283 155-279, NT-647 amine-reactive dye (in the MST only))
T1 construct: human Tks4 (SH3PXD2B), residues 155-279: first and second SH3 domains with their linker; The vector has a TEV site after the His-tag; Unlabelled in the tryptophan fluorescence titrations; source: E. coli Rosetta pLysS, purified
T1 sequence (looked up): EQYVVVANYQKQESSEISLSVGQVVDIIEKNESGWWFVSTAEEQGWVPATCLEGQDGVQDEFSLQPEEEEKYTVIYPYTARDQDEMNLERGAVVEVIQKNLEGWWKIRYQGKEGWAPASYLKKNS
EXPERIMENT: MST; NT-647-labelled SH3_(1)–SH3_(2) constant at 20 nM, titrated with PRRL (16-step 2:3 dilutions from 166 µM); PBS, 0.5 mM TCEP, 0.05% TWEEN 20; room temperature; standard Kd fit model
TEST_SETTINGS: both partners purified

>  <BINDER>
GSHMGDAKQRSPKMRQRPPPRRDMTIPRGLNLPKPPIPPQVE (domain or fragment, human, four N-terminal residues that are cloning artifacts; human Tks4 (SH3PXD2B), residues 333-370: proline-rich region with the PTAM (PPPRR) and the PKPPIPP motif; also called wild type PRRL; not shown: His-tag, N-terminal, cleaved) [Tks4 PRRL fragment (residues 333–370)]

>  <Kd (µM)>
15

$$$$
